# Tested on: Spodoptera frugiperda
# ASSAY_PROCEDURE: Spodoptera frugiperda spray test
# Format: in vivo
# CONDITION: in Zea mays, 168 h, read-out: activity (mortality)
MEASURED_PROPERTY: mortality at 100 g/ha

> print(dat)
                                    molecule  result
 1  CC(C)N(C)C(=O)c1ccc(-n2ncnc2[C@H](C)NC(=O)c2cc(Cl)cc(C(F)(F)F)c2)nc1     83%
 2  CC(NC(=O)c1cc(Cl)cc(C(F)(F)F)c1)c1nc(C(F)F)nn1-c1ccc(C#N)cn1 (racemic)    100%
 3  CCc1nc([C@H](C)NC(=O)c2cc(Cl)cc(Cl)c2)n(-c2ccc(C#N)cn2)n1    100%
 4  Cc1nc([C@H](C)NC(=O)c2cc(Cl)cc(OC(F)(F)F)c2)n(-c2cc(C#N)ccn2)n1    100%
 5  C[C@H](NC(=O)c1cc(C(F)(F)F)cc(C(F)(F)F)c1)c1ncnn1-c1ncc(I)s1    100%
 6  CCN(C)C(=O)c1ccc(-n2ncnc2[C@H](C)NC(=O)c2cc(Cl)cc(C(F)(F)F)c2)nc1     83%
 7  CCOc1nc([C@H](C)NC(=O)c2cc(C(F)(F)F)cc(C(F)(F)F)c2)n(-c2ccc(C#N)cn2)n1    100%
 8  Cc1nc([C@H](C)NC(=O)c2cc(Cl)cc(C(F)(F)F)c2)n(-c2cc(C#N)ccn2)n1    100%
 9  C[C@H](NC(=O)c1cc(Cl)cc(OC(F)(F)F)c1)c1ncnn1-c1ncc(OC(F)F)cn1    100%
10  Cc1nc([C@H](C)NC(=O)c2cc(C#N)cc(C(F)(F)F)c2)n(-c2ccc(C#N)cn2)n1    100%
11  CCN(C(=O)c1ccc(-n2ncnc2[C@H](C)NC(=O)c2cc(Cl)cc(C(F)(F)F)c2)nc1)C1CC1    100%
12  CCOc1nc([C@H](C)NC(=O)c2cc(Cl)cc(C(F)(F)F)c2)n(-c2ccc(C#N)cn2)n1    100%
13  C[C@H](NC(=O)c1cc(Cl)cc(C(F)(F)F)c1)c1ncnn1-c1ccc(C(=O)N(C)CC(F)(F)F)cn1     83%
14  C[C@H](NC(=O)c1cc(Cl)cc(C(F)(F)F)c1)c1nc(C(C)(C)C)nn1-c1ccc(C#N)cn1     83%
15  Cc1nc([C@H](C)NC(=O)c2cc(OC(F)(F)F)cc(C(F)F)c2)n(-c2ccc(C#N)cn2)n1    100%
16  COc1nc([C@H](C)NC(=O)c2cc(Br)cc(Br)c2)n(-c2ccc(C#N)cn2)n1    100%
17  Cc1nc([C@H](C)NC(=O)c2cc(F)cc(C#N)c2)n(-c2ccc(C#N)cn2)n1    100%
18  Cc1nc([C@H](C)NC(=O)c2cc(C(F)(F)F)cc(C(F)(F)F)c2)n(-c2cc(C#N)ccn2)n1    100%
19  Cc1nc([C@H](C)NC(=O)c2cc(Br)cc(Br)c2)n(-c2ccc(C#N)cn2)n1    100%
20  CC(NC(=O)c1cc(C(F)(F)F)cc(C(F)(F)F)c1)c1nc(Cl)nn1-c1ccc(C#N)cn1 (racemic)    100%
21  C[C@H](NC(=O)c1cc(C(F)(F)F)cc(C(F)(F)F)c1)c1ncnn1-c1ccc(C(N)=O)cn1    100%
22  C[C@H](NC(=O)c1cc(Br)cc(I)c1)c1ncnn1-c1ccc(C#N)cn1    100%
23  Cc1nc([C@H](C)NC(=O)c2cc(C(F)(F)F)cc(C(F)(F)F)c2)n(-c2ccc(C(=O)N(C)CC(F)(F)F)cn2)n1    100%
24  C[C@H](NC(=O)c1cc(C(F)(F)F)cc(C(F)(F)F)c1)c1ncnn1-c1ccc(S(C)(=O)=O)cn1    100%
25  COc1nc([C@H](C)NC(=O)c2cc(OC(F)F)cc(C(F)F)c2)n(-c2ccc(C#N)cn2)n1    100%
26  C[C@H](NC(=O)c1cc(Br)cc(C(F)F)c1)c1ncnn1-c1ccc(C#N)cn1    100%
27  C[C@H](NC(=O)c1cc(C(F)(F)F)cc(C(F)(F)F)c1)c1ncnn1-c1ncc(Cl)s1    100%
28  CC(NC(=O)c1cc(Cl)cc(OC(F)(F)F)c1)c1nc(Cl)nn1-c1ccc(C#N)cn1 (centres unmarked)     83%
29  C[C@H](NC(=O)c1cc(Cl)cc(Cl)c1)c1nc(C2CC2)nn1-c1ccc(C#N)cn1    100%
30  C[C@H](NC(=O)c1cc(I)cc(C(F)(F)F)c1)c1ncnn1-c1ccc(C#N)cn1    100%
31  COc1nc([C@H](C)NC(=O)c2cc(OC(F)F)cc(OC(F)F)c2)n(-c2ccc(C#N)cn2)n1    100%
32  C[C@H](NC(=O)c1cc(Cl)cc(C(F)(F)F)c1)c1ncnn1-c1cnc(C#N)cn1    100%

----------
# System: Rhipicephalus microplus
# ASSAY_PROCEDURE: Rhipicephalus (Boophilus) microplus injection test (BOOPMI Inj)
# Assay type: in vivo
# CONDITION: 168 h, application rate 4 μg/tick, injection into adult engorged female ticks, egg deposition after 7 days, read-out: activity (efficacy: 100% means all eggs are infertile)
MEASURED_PROPERTY: pest or weed control at 0.004 mg

> print(dat)
                  compound.structure.string  result
1  Cc1nc([C@H](C)NC(=O)c2cc(Br)cc(C(F)(F)F)c2)n(-c2ccc(C#N)cn2)n1     80%
2  Cc1nc([C@H](C)NC(=O)c2cc(Cl)cc(C(F)F)c2)n(-c2ccc(C#N)cn2)n1    100%
3  COc1nc([C@H](C)NC(=O)c2cc(Br)cc(Br)c2)n(-c2ccc(C#N)cn2)n1    100%
4  C[C@H](NC(=O)c1cc(Cl)cc(C(F)(F)F)c1)c1ncnn1-c1cc([N+](=O)[O-])ccn1     80%
5  C[C@H](NC(=O)c1cc(Cl)cc(OC(F)(F)F)c1)c1nc(C2CC2)nn1-c1ccc(C#N)cn1    100%
6  C[C@H](NC(=O)c1cc(Br)c(F)c(Br)c1)c1ncnn1-c1ccc(C#N)cn1    100%
7  C[C@H](NC(=O)c1cc(Cl)cc(C(F)(F)F)c1)c1ncnn1-c1ccc(C(=O)N(CC(F)(F)F)C2CC2)cn1    100%
8  Cc1nc([C@H](C)NC(=O)c2cc(C(F)(F)F)cc(C(F)(F)F)c2)n(-c2ccc(C(=O)N(C)CC(C)C)cn2)n1    100%

----------
Listing: mortality at 100 g/ha of selected molecules
# Test system: Myzus persicae
# ASSAY_PROCEDURE: Myzus persicae spray test
# Assay type: in vivo
# CONDITION: in Brassica rapa, foliar, 120 h, read-out: activity (mortality), application rate 100 g/ha, spray, Chinese cabbage leaf disks, after 5 days
# Experimental: Myzus persicae—Spray Test Solvent: 78.0 parts by weight acetone • 1.5 parts by weight dimethylformamide Emulsifier: alkylarylpolyglycol ether To produce a suitable preparation of active compound, 1 part by weight of active compound is mixed with the stated amount of solvents and is diluted with water, containing an emulsifier concentration of 1000 ppm, to the desired concentration. […] After 5 days mortality in % is determined. […]
MEASURED_PROPERTY: mortality at 100 g/ha (%)

> print(dat)
                   compound.structure.string    study.system  numeric.result
 1  CC(C)CN(C)C(=O)c1ccc(-n2ncnc2[C@H](C)NC(=O)c2cc(Cl)cc(C(F)(F)F)c2)nc1  Myzus persicae              90
 2  Cc1nc([C@H](C)NC(=O)c2cc(Br)cc(Br)c2)n(-c2ccc(C#N)cn2)n1  Myzus persicae              90
 3  Cc1nc([C@H](C)NC(=O)c2cc(Cl)cc(Br)c2)n(-c2ccc(C#N)cn2)n1  Myzus persicae             100
 4  C[C@H](NC(=O)c1cc(Cl)cc(C#N)c1)c1ncnn1-c1ccc(C#N)cn1  Myzus persicae              90
 5  C[C@H](NC(=O)c1cc(OC(F)F)cc(OC(F)F)c1)c1ncnn1-c1ccc(C#N)cn1  Myzus persicae              90
 6  Cc1nc([C@H](C)NC(=O)c2cc(OC(F)F)cc(OC(F)F)c2)n(-c2ccc(C#N)cn2)n1  Myzus persicae              90
 7  Cc1nc([C@H](C)NC(=O)c2cc(Cl)cc(C(F)(F)F)c2)n(-c2cnc(C#N)cn2)n1  Myzus persicae             100
 8  COc1nc([C@H](C)NC(=O)c2cc(OC(F)F)cc(C(F)F)c2)n(-c2ccc(C#N)cn2)n1  Myzus persicae              90
 9  Cc1nc([C@H](C)NC(=O)c2cc(C#N)cc(C(F)(F)F)c2)n(-c2ccc(C#N)cn2)n1  Myzus persicae             100
10  Cc1nc([C@H](C)NC(=O)c2cc(Cl)cc(C(F)F)c2)n(-c2ccc(C#N)cn2)n1  Myzus persicae              90
11  Cc1nc([C@H](C)NC(=O)c2cc(C(F)(F)F)cc(C(F)(F)F)c2)n(-c2ccc(C(=O)N(C)C3CC3)cn2)n1  Myzus persicae              90
12  C[C@H](NC(=O)c1cc(C(F)(F)F)cc(C(F)(F)F)c1)c1ncnn1-c1ccc(C(=O)N(C)C2CC2)cn1  Myzus persicae             100
13  CCSc1cc(C#N)cc(C(=O)N[C@@H](C)c2ncnn2-c2ccc(C#N)cn2)c1  Myzus persicae              90
14  Cc1nc([C@H](C)NC(=O)c2cc(OC(F)F)cc(C(F)F)c2)n(-c2ccc(C#N)cn2)n1  Myzus persicae              90
15  C[C@H](NC(=O)c1cc(Cl)cc(C(F)F)c1)c1ncnn1-c1ccc(C#N)cn1  Myzus persicae              90
16  Cc1nc([C@H](C)NC(=O)c2cc(C(F)(F)F)cc(C(F)(F)F)c2)n(-c2ccc(C(=O)N(C)CC(F)(F)F)cn2)n1  Myzus persicae              90
